# System: Escherichia coli
# method_description: Escherichia coli DNA cleavage endpoint value which is the minimum amount required (in micro g/mL) to induce detectable cleavage of supercoiled pBR322 substrate to linear form (gyrase)
# Assay type: functional
# conditions: read-out: MIC
readout_label: minimum concentration inducing gyrase-mediated DNA cleavage (µg/mL)
Output spec: scalar in µg/mL, unitless text.

* C=Cn1cc(C(=O)O)c(=O)c2cc(F)c(N3CCN4CCC3CC4)cc21 | 0.39

minimum concentration inducing gyrase-mediated DNA cleavage recorded for this molecule, CCn1cc(C(=O)O)c(=O)c2cc(F)c(N3C[C@@H]4C[C@H]3CN4)cc21 , is 3.12

For record CN1C[C@@H]2C[C@H]1CN2c1c(F)cc2c(=O)c(C(=O)O)cn(-c3ccc(F)cc3F)c2c1F the listed minimum concentration inducing gyrase-mediated DNA cleavage is 0.78

# molecule CCn1cc(C(=O)O)c(=O)c2cc(F)c(N3C[C@H]4CCC[C@@H](C3)N4C)cc21 ; its minimum concentration inducing gyrase-mediated DNA cleavage = 3.12

Please fill in: minimum concentration inducing gyrase-mediated DNA cleavage reported for CN1[C@@H]2CC[C@H]1CN(c1c(F)cc3c(=O)c(C(=O)O)cn(C4CC4)c3c1F)C2 = 0.78

Entry CN1[C@@H]2CC[C@H]1CN(c1cc3c(cc1F)c(=O)c(C(=O)O)cn3C1CC1)C2 , minimum concentration inducing gyrase-mediated DNA cleavage reported as 0.78

Form: molecule = CN1[C@@H]2CC[C@H]1CN(c1cc3c(cc1F)c(=O)c(C(=O)O)cn3CCF)C2.Cl.O ; minimum concentration inducing gyrase-mediated DNA cleavage = 3.12

The reported minimum concentration inducing gyrase-mediated DNA cleavage of the molecule O=C(O)c1cn(-c2ccc(F)cc2)c2c(F)c(N3C[C@@H]4C[C@H]3CN4)c(F)cc2c1=O was 0.78

# minimum concentration inducing gyrase-mediated DNA cleavage of CNn1cc(C(=O)O)c(=O)c2cc(F)c(N3CCN4CCC3CC4)cc21 = 1.56

Sample CN1C[C@@H]2C[C@H]1CN2c1cc2c(cc1F)c(=O)c(C(=O)O)cn2C1CC1 ; minimum concentration inducing gyrase-mediated DNA cleavage observed: 0.78

// sample CCn1cc(C(=O)O)c(=O)c2cc(F)c(N3CC[C@H]4CCC(C3)N4C)cc21 , its minimum concentration inducing gyrase-mediated DNA cleavage was 1.56

The molecule CN1[C@@H]2CC[C@H]1CN(c1cc3c(cc1F)c(=O)c(C(=O)O)cn3C)C2 showed minimum concentration inducing gyrase-mediated DNA cleavage equal to 3.12

CN1C[C@@H]2C[C@H]1CN2c1cc2c(cc1F)c(=O)c(C(=O)O)cn2-c1ccc(F)cc1F yielded minimum concentration inducing gyrase-mediated DNA cleavage of 0.78

Value of measured minimum concentration inducing gyrase-mediated DNA cleavage for the entry CN1C[C@H]2C[C@@H]1CN2c1cc2c(cc1F)c(=O)c(C(=O)O)cn2C1CC1 : 0.19

Recorded minimum concentration inducing gyrase-mediated DNA cleavage (molecule O=C(O)c1cn(C2CC2)c2c(F)c(N3C[C@@H]4C[C@H]3CN4)c(F)cc2c1=O ): 0.09

Quick note, minimum concentration inducing gyrase-mediated DNA cleavage for O=C(O)c1cn(C2CC2)c2c(Cl)c(N3C[C@@H]4C[C@H]3CN4)c(F)cc2c1=O landed at 0.09

// minimum concentration inducing gyrase-mediated DNA cleavage value for CN1C[C@@H]2C[C@H]1CN2c1c(F)cc2c(=O)c(C(=O)O)cn(-c3ccc(F)cc3)c2c1F : 0.39

For reference, reported minimum concentration inducing gyrase-mediated DNA cleavage for O=C(O)c1cn(-c2ccc(F)cc2F)c2c(F)c(N3C[C@@H]4C[C@H]3CN4)c(F)cc2c1=O stands at 0.78

Lookup result for CN1C2CC[C@@H]1CCN(c1cc3c(cc1F)c(=O)c(C(=O)O)cn3C1CC1)C2 ; measured minimum concentration inducing gyrase-mediated DNA cleavage: 3.12

Reported minimum concentration inducing gyrase-mediated DNA cleavage for CN1C[C@@H]2C[C@H]1CN2c1nc2c(cc1F)c(=O)c(C(=O)O)cn2-c1ccc(F)cc1 was 1.56

Looking up CN1[C@@H]2CC[C@H]1CN(c1c(F)cc3c(=O)c(C(=O)O)cn(C4CC4)c3c1Cl)C2 , I found its minimum concentration inducing gyrase-mediated DNA cleavage recorded as 1.56

Just so you know, measured minimum concentration inducing gyrase-mediated DNA cleavage for CCn1cc(C(=O)O)c(=O)c2cc(F)c(N3C[C@@H]4C[C@H]3CN4C)cc21 came out at 3.12

Lab note: measured minimum concentration inducing gyrase-mediated DNA cleavage of CN1C2CC[C@@H]1CCN(c1nc3c(cc1F)c(=O)c(C(=O)O)cn3C1CC1)C2 was 3.12

The measured values listed here are drawn from ChEMBL document CHEMBL1126160.
